Just for reference, patent US20240182536A1 is where these values come from.

- experimental system: T1, interleukin 18 binding protein (IL-18BP) (UniProt O95998 31-194)
- T1 sequence (looked up): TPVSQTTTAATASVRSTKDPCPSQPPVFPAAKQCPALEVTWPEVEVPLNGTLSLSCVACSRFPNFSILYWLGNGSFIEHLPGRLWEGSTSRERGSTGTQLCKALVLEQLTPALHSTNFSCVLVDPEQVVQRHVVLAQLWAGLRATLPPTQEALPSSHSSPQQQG
- procedure details: cell-based or functional assay
measure: Ratio (-BP/+BP), DF-10000

>>> endpoint_value("IL-18 variant K53S, S55Y, P107M (ligand) YFGKLESKLSVIRNLNDQVLFIDQGNRPLFEDMTDSDMRDNAPRTIFIISMYSDYQPRGMAVTISVKSEKISTLSSENKIISFKEMNPPDNIKDTKSDIIFFQRSVMGHDNKMQFESSSYEGYFLASEKERDLFKLILKKEDELGDRSIMFTVQNED")
0.82
>>> endpoint_value("IL-18 variant K53S, S55F, T63S, R104K, H109Y (ligand) YFGKLESKLSVIRNLNDQVLFIDQGNRPLFEDMTDSDMRDNAPRTIFIISMYSDFQPRGMAVSISVKSEKISTLSSENKIISFKEMNPPDNIKDTKSDIIFFQKSVPGYDNKMQFESSSYEGYFLASEKERDLFKLILKKEDELGDRSIMFTVQNED")
1.03
>>> endpoint_value("IL-18 variant K53D, S55L (ligand) YFGKLESKLSVIRNLNDQVLFIDQGNRPLFEDMTDSDMRDNAPRTIFIISMYDDLQPRGMAVTISVKSEKISTLSSENKIISFKEMNPPDNIKDTKSDIIFFQRSVPGHDNKMQFESSSYEGYFLASEKERDLFKLILKKEDELGDRSIMFTVQNED")
1.02
